system: BT-474; test: WST-1 proliferation assay, BT-474; type: cell-based; details: Homo sapiens; Breast BT-474, 72 h; read-out: Anti-proliferative activity IC50 (μM) ± SD
Below is a list of entries, each paired with its recorded IC50 value.
Number in µM, nothing else.

GET /values?readout=IC50&system=BT-474&item= O=C(NC(=S)Nc1cccc(-c2nc3ccccc3[nH]2)c1)c1ccc2c(c1)OCCO2 1.6

Next: Cc1ccc(-c2nc3ccccc3[nH]2)cc1NC(=S)NC(=O)c1ccc2c(c1)OCCO2 2

---

System: VAL
Assay: WST-1 proliferation assay, VAL
Type: cell-based
Settings: Homo sapiens; B lymphoma VAL; read-out: Anti-proliferative activity IC50 (μM) ± SD
Excerpt: All the cancer cell lines were maintained in cultured in DMEM GlutaMAX™ (GIBCO Invitrogen, France, cat no 31966047) enhanced with 10% foetal bovine serum (GIBCO Invitrogen, France, cat no 10270-106) and 1% penicillin G/streptomycin (GIBCO Invitrogen, France, cat no 15140-122). […]
Below is a list of entries, each paired with its recorded IC50 value.
Number in µM, nothing else.

O=C(NC(=S)Nc1cccc(-c2nc3ccccc3[nH]2)c1)c1ccc2c(c1)OCCO2: 1

Report IC50 for Cc1ccc(-c2nc3ccccc3[nH]2)cc1NC(=S)NC(=O)c1ccc2c(c1)OCCO2 please. 1.8

---

tested on: CEM; assay: WST-1 proliferation assay, CEM; format: cell-based; details: Homo sapiens, CCRF-CEM; Acute lymphoblastic leukemia CEM; read-out: Anti-proliferative activity IC50 (μM) ± SD
observed.property: IC50 (µM)
Number in µM, nothing else.

Cc1ccc(-c2nc3ccccc3[nH]2)cc1NC(=S)NC(=O)c1ccc2c(c1)OCCO2: 0.5

// switching to the query molecule
GET /values?readout=IC50&system=CEM&item= O=C(NC(=S)Nc1cccc(-c2nc3ccccc3[nH]2)c1)c1ccc2c(c1)OCCO2 0.3

---

test system: U266; assay: WST-1 proliferation assay, U266; type: cell-based; conditions: Homo sapiens, U-266; Myeloma U266; read-out: Anti-proliferative activity IC50 (μM) ± SD
Below is a list of entries, each paired with its recorded IC50 value.
Number in µM, nothing else.

Cc1ccc(-c2nc3ccccc3[nH]2)cc1NC(=S)NC(=O)c1ccc2c(c1)OCCO2: 2

// switching to the query molecule
GET /values?readout=IC50&system=U266&item= O=C(NC(=S)Nc1cccc(-c2nc3ccccc3[nH]2)c1)c1ccc2c(c1)OCCO2 1.5
